method description: PK of compound of Formula (Ia) after single subcutaneous dose of solution formulations in beagle dogs
Type: in vivo
experimental parameters: male, beagle, dog, plasma, sc, 12 mg/kg, beagle dogs, SC 12 mg/kg, 400 mg/mL solution AA (6.25% poloxamer 188), 1680 h, animals #1-#3
attribute measured: concentration at 1680 h (µM)
Entry rule: numbers only, all in µM.

*Q* Complete the entry with concentration at 1680 h for CC(C)(C#Cc1ccc(-c2ccc(Cl)c3c(NS(C)(=O)=O)nn(CC(F)(F)F)c23)c([C@H](Cc2cc(F)cc(F)c2)NC(=O)Cn2nc(C(F)(F)F)c3c2C(F)(F)[C@@H]2C[C@H]32)n1)S(C)(=O)=O [compound of Formula (Ia)]
*A* 0.024

----------
method description: PK of compound of Formula (Ia) after single subcutaneous dose of solution formulations in Wistar Han rats
Format: in vivo
experimental parameters: male, Wistar Han, rat, plasma, sc, 50 mg/kg, 6720 h; mean, n = 3 rats; SC 50 mg/kg; solution S, 500 mg/mL
attribute measured: concentration at 6720 h (nM)
Entry rule: numbers only, all in nM.

*Q* Complete the entry with concentration at 6720 h for "CC(C)(C#Cc1ccc(-c2ccc(Cl)c3c(NS(C)(=O)=O)nn(CC(F)(F)F)c23)c([C@H](Cc2cc(F)cc(F)c2)NC(=O)Cn2nc(C(F)(F)F)c3c2C(F)(F)[C@@H]2C[C@H]32)n1)S(C)(=O)=O"
*A* 37

----------
method description: PK of compound of Formula (Ia) after single subcutaneous dose of solution formulations in Wistar Han rats
Type: in vivo
experimental parameters: male, Wistar Han, rat, plasma, sc, 50 mg/kg, Wistar Han rats, SC 50 mg/kg, 400 mg/mL solution Z (3.13% poloxamer 188), 504 h, Mean n = 4
attribute measured: concentration at 504 h
Write your answer as a measured quantity: the number, then the unit.

*Q* Complete the entry with concentration at 504 h for "CC(C)(C#Cc1ccc(-c2ccc(Cl)c3c(NS(C)(=O)=O)nn(CC(F)(F)F)c23)c([C@H](Cc2cc(F)cc(F)c2)NC(=O)Cn2nc(C(F)(F)F)c3c2C(F)(F)[C@@H]2C[C@H]32)n1)S(C)(=O)=O"
*A* 166 nM

----------
method description: PK of compound of Formula (Ia) after single subcutaneous dose of solution formulations in Wistar Han rats
Format: in vivo
experimental parameters: male, Wistar Han, rat, plasma, sc, 50 mg/kg, Wistar Han rats, SC 50 mg/kg, 400 mg/mL solution W (5.00% ethanol, 1.57% poloxamer 188), 1680 h, animals #1-#3
Procedure: Formulations containing the compound of Formula (Ia), or a pharmaceutically acceptable salt thereof, were prepared as solutions and optionally administered subcutaneously or intramuscularly to rats, rabbits, and/or dogs. A solution of about 400 mg/mL of the compound of Formula (Ia) having 19.14 w/w % water, 40.66 w/w % PEG 300, 35.20 w/w % of a sodium salt of a compound of Formula (Ia), and 5.00% ethanol was prepared. […]
attribute measured: concentration at 1680 h (nM)
Entry rule: numbers only, all in nM.

*Q* Complete the entry with concentration at 1680 h for "CC(C)(C#Cc1ccc(-c2ccc(Cl)c3c(NS(C)(=O)=O)nn(CC(F)(F)F)c23)c([C@H](Cc2cc(F)cc(F)c2)NC(=O)Cn2nc(C(F)(F)F)c3c2C(F)(F)[C@@H]2C[C@H]32)n1)S(C)(=O)=O"
*A* 206
